pKd values for the binders below.
SYSTEM TESTED: T1, dansyl-calmodulin (bovine brain) (bovine, UniProt P62157 1-149, dansyl (0.18–0.34 mol of dansyl moiety per mol of CaM), site not stated)
T1 construct: calmodulin, bovine brain, dansylated; also called dansyl-CaM; source: CaM purified from bovine brain (bought: Calbiochem), labelled with dansyl chloride
PROTOCOL TEXT: other fluorescence titration; peptides (25–2000 nM) with 147 nM dansyl-CaM, 0.1 mM calcium, 1 hour at room temperature; emission at 485 nm; apparent dissociation constants
MEASUREMENT SETUP: both partners purified
The scale used: pKd is minus the common logarithm of the concentration in molar units.

A selection of reference data follows.
[
  {
    "BINDER": "YGFLGKKFKKYFLQLL (also called 1-5-10 motif peptide of the carboxyl tail; source: synthetic peptide (MUSC Proteogenomics Facility, HPLC purified)) [ATct(302–317) peptide]",
    "pKd": 7.10
  },
  {
    "BINDER": "YGFLGKKAKKYFLQLL (AT1A receptor carboxyl tail, amino acids 302–317, with F309A; source: synthetic peptide (MUSC Proteogenomics Facility, HPLC purified)) [ATct(302–317)F309A peptide]",
    "pKd": 6.51
  },
  {
    "BINDER": "SYTLIWKALKKAYEIQKN (also called 1–12 motif peptide of the i3 loop; source: synthetic peptide (MUSC Proteogenomics Facility, HPLC purified)) [ATi3(214–231) peptide]",
    "pKd": 6.75
  }
]

Here's the next entry for you.
Tell us which pKd value is on record for YGFLGKKFKKYALQLL (AT1A receptor carboxyl tail, amino acids 302–317, with F313A; source: synthetic peptide (MUSC Proteogenomics Facility, HPLC purified)) [ATct(302–317)F313A peptide]
6.41
